These measurements were taken from patent US11111247B2.

# target.or.test.system: ALK2 (aa 147-end) (Homo sapiens (Human))
# Sequence (Q04771 147-509): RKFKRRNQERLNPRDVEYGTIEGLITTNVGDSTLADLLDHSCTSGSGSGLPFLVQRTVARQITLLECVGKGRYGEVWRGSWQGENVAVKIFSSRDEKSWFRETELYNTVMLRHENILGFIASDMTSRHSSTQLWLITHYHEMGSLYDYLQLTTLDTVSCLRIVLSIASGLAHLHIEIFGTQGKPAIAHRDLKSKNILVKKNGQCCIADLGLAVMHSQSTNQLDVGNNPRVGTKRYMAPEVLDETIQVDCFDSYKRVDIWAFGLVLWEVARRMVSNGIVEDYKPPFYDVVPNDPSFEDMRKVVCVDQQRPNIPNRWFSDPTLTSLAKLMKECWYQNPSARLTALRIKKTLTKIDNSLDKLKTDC
# method.notes: ALK2 HTRF Assay
# Assay type: biochemical
# run.conditions: ALK2 3 μM IC50, 3 uM ATP
# Description: The enzymatic assays were conducted in white 384-well polystyrene plates in a final volume of 8 μL. The inhibitors were serially diluted in DMSO and added to the plate wells prior to addition of the other reaction components. […] The reaction was read on a PHERAstar FS plate reader (BMG Labtech). […]
Reported IC50 values for a set of compounds

* CC1C(=O)N(C)CCN1c1ncc2[nH]nc(-c3cnn(C)c3)c2n1 (stereo not shown) | 100 to 500 nM
* CN1CC2CCC(C1=O)N2c1ncc2[nH]nc(-c3cnn(CCN4CCOCC4)c3)c2n1 (stereo not shown) | 500 to 2000 nM
* CNC(=O)c1ccc(-n2cc(-c3n[nH]c4cnc(N5C6CCC5C(=O)N(C)C6)nc34)cn2)cn1 (stereo not shown) | 500 to 2000 nM
* CN1CC2CCC(C1=O)N2c1ncc2[nH]nc(-c3cnn(C)c3)c2n1 (stereo not shown) | 500 to 2000 nM
* Cn1cc(-c2n[nH]c3cnc(N4C5CCC4C(=O)N(CCF)C5)nc23)cn1 (stereo not shown) | 100 to 500 nM

Ask: // lookup IC50 | system=ALK2 (aa 147-end) (Homo sapiens (Human)) | key= Cc1cc(-n2cc(-c3n[nH]c4cnc(N5C6CCC5C(=O)N(C)C6)nc34)cn2)ccn1 (stereo not shown)
Result: 500 to 2000 nM

Ask: // lookup IC50 | system=ALK2 (aa 147-end) (Homo sapiens (Human)) | key= CN1CC2CCC(C1=O)N2c1ncc2[nH]nc(-c3cnn(-c4ccc(C#N)cc4)c3)c2n1 (stereo not shown)
Result: 500 to 2000 nM

Ask: // lookup IC50 | system=ALK2 (aa 147-end) (Homo sapiens (Human)) | key= CCn1cc(-c2n[nH]c3cnc(N4C5CCC4C(=O)N(C)C5)nc23)cn1 (stereo not shown)
Result: 500 to 2000 nM

Ask: // lookup IC50 | system=ALK2 (aa 147-end) (Homo sapiens (Human)) | key= Cc1cc(-n2cc(-c3n[nH]c4cnc(N5C6CCC5C(=O)N(C)C6)nc34)cn2)ccc1C#N (stereo not shown)
Result: 500 to 2000 nM

Ask: // lookup IC50 | system=ALK2 (aa 147-end) (Homo sapiens (Human)) | key= CN1CC2CCC(C1=O)N2c1ncc2[nH]nc(-c3cnn(C4CCC4)c3)c2n1 (single isomer, unassigned)
Result: 100 to 500 nM

---

# target.or.test.system: UniProt:P11362
# method.notes: pFGFR1 Functional Cell HTRF Assay (BAF3-TEL-FGFR1 cells)
# Type: cell-based
# run.conditions: BAF3-TEL-FGFR1 cells, 2 hours; read-out: FGFR1 HTRF IC50
pIC50: −log10 of the molar value.
endpoint: pIC50

- Cn1cc(-c2n[nH]c3cnc(N4C5CCC4c4cn[nH]c4C5)nc23)cn1 (centres unmarked): 5.70 to 6.30

Now take the following compound into account.
Ask: Need pIC50 of CN1CC2CCC(C1=O)N2c1ncc2[nH]nc(-c3cnn(C)c3)c2n1 (centres unmarked) , thanks.
Result: 5.70 to 6.30

---

# target.or.test.system: UniProtKB P11362
# method.notes: FGFR Enzymatic Assay, FGFR1 un-phosphorylated
pIC50: −log10 of the molar value.
endpoint: pIC50

The examples below pair each entry with its known result.
* CC1c2nccn2CCN1c1ncc2[nH]nc(-c3cnn(C)c3)c2n1 (stereo not shown) [Example 43] | 5.70 to 6.30
* CN1CC2CCC(C1=O)N2c1ncc2[nH]nc(-c3cnn(Cc4ccncc4)c3)c2n1 (stereo not shown) [Example 59] | 6.30 to 7.00
* COC(=O)N1C[C@@H](C)N(c2ncc3[nH]nc(-c4ccc(N5CCN(C)CC5)c(F)c4)c3n2)[C@@H](C)C1 [Example 23] | 6.30 to 7.00
* C[C@@H]1CN(c2ccc(-c3n[nH]c4cnc(N5[C@H](C)CCC[C@@H]5C)nc34)cn2)CCN1 [Example 1] | 6.30 to 7.00
* Cn1cc(-c2n[nH]c3cnc(N4CCc5cn[nH]c5C4)nc23)cn1 [Example 44] | 6.30 to 7.00
* CC(C)n1cc(-c2n[nH]c3cnc(N4C5CCC4C(=O)N(C)C5)nc23)cn1 (stereo not shown) [Example 62] | 6.30 to 7.00

Ask: // lookup pIC50 | system=UniProtKB P11362 | key= Cn1cc(-c2n[nH]c3cnc(N4CCc5ncccc5C4)nc23)cn1 [Example 40]
Result: 5.70 to 6.30

Ask: // lookup pIC50 | system=UniProtKB P11362 | key= COC(=O)N1C[C@@H](C)N(c2ncc3[nH]nc(-c4ccc(N5CCN(C)[C@H](C)C5)nc4)c3n2)[C@@H](C)C1 [Example 33]
Result: 6.30 to 7.00

Ask: // lookup pIC50 | system=UniProtKB P11362 | key= CN1CC2CCC(C1=O)N2c1ncc2[nH]nc(-c3cnn(CC(F)(F)F)c3)c2n1 (stereo not shown) [Example 67]
Result: 6.30 to 7.00

Ask: // lookup pIC50 | system=UniProtKB P11362 | key= C[C@@H]1CN(c2ccc(-c3n[nH]c4cnc(N5[C@@H]6CCC[C@H]5[C@@H](O)C6)nc34)cn2)CCN1 [Example 4]
Result: 6.30 to 7.00

Ask: // lookup pIC50 | system=UniProtKB P11362 | key= COC(=O)N1C[C@@H](C)N(c2ncc3[nH]nc(-c4ccc(C5CCN(CCO)C5)cc4)c3n2)[C@@H](C)C1 (stereo partly shown) [Example 28]
Result: 5.70 to 6.30

Ask: // lookup pIC50 | system=UniProtKB P11362 | key= C[C@@H]1CCC[C@H](C)N1c1ncc2[nH]nc(-c3ccc(N4CCN(C)CC4)cc3)c2n1 [Example 16]
Result: 6.30 to 7.00

Ask: // lookup pIC50 | system=UniProtKB P11362 | key= CN1CC2CCC(C1=O)N2c1ncc2[nH]nc(-c3cnn(-c4cncc(C#N)c4)c3)c2n1 (stereo not shown) [Example 73]
Result: 6.30 to 7.00

---

# target.or.test.system: FGFR3 (UP) (Homo sapiens (Human))
# Sequence (P22607 23-806): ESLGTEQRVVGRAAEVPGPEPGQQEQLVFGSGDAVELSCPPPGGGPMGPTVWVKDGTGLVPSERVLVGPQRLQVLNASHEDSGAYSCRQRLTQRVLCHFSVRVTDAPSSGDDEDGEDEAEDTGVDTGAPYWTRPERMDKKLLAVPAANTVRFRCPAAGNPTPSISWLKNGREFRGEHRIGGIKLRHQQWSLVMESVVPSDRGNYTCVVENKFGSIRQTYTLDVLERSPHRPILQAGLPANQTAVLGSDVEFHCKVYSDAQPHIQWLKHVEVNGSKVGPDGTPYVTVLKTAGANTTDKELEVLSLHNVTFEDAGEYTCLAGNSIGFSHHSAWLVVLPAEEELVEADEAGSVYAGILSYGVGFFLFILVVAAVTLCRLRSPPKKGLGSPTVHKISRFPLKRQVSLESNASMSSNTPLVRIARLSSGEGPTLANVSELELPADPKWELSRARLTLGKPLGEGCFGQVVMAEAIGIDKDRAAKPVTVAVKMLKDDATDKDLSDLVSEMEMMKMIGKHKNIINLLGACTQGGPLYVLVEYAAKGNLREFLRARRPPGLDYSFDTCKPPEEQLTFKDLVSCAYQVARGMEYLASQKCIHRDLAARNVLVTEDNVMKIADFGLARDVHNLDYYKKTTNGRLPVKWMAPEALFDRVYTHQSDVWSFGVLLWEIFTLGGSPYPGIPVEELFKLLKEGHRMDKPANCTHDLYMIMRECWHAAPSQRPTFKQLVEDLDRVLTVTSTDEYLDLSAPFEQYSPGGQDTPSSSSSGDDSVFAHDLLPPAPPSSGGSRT
# method.notes: FGFR Enzymatic Assay, FGFR3 un-phosphorylated
# run.conditions: read-out: FGFR3 (UP) IC50; un-phosphorylated enzyme, ATP near or below Km
Reported IC50 values for a set of molecules

* CCn1cc(-c2n[nH]c3cnc(N4C5CCC4C(=O)N(C)C5)nc23)cn1 (stereo not shown) | < 100 nM
* COC(=O)N1C[C@@H](C)N(c2ncc3[nH]nc(-c4ccc(N5CCN[C@H](C)C5)nc4)c3n2)[C@@H](C)C1 | < 100 nM
* CN1CC2CCC(C1=O)N2c1ncc2[nH]nc(-c3cnn(-c4ccc(C#N)c(F)c4)c3)c2n1 (stereo not shown) | < 100 nM
* C[C@@H]1CN(c2ccc(-c3n[nH]c4cnc(N5[C@@H]6CC[C@H]5CN(C(=O)N5CCCC5)C6)nc34)cn2)CCN1 | > 2000 nM
* CN(C)C(=O)N1CCC(n2cc(-c3n[nH]c4cnc(N5C6CCC5C(=O)N(C)C6)nc34)cn2)CC1 (stereo not shown) | < 100 nM
* C[C@@H]1CN(c2ccc(-c3n[nH]c4cnc(N5[C@@H]6CC[C@H]5CN(c5ccc(C#N)cc5)C6)nc34)cn2)CCN1 | > 2000 nM

Now take the following molecule into account.
Ask: Need IC50 of CN1CC2CCC(C1=O)N2c1ncc2[nH]nc(-c3cnn(-c4ccc(N(C)C)nc4)c3)c2n1 (stereo not shown) , thanks.
Result: < 100 nM

---

# target.or.test.system: FGFR1 (UP) (Homo sapiens (Human), UniProt P11362)
# Sequence (P11362 22-822): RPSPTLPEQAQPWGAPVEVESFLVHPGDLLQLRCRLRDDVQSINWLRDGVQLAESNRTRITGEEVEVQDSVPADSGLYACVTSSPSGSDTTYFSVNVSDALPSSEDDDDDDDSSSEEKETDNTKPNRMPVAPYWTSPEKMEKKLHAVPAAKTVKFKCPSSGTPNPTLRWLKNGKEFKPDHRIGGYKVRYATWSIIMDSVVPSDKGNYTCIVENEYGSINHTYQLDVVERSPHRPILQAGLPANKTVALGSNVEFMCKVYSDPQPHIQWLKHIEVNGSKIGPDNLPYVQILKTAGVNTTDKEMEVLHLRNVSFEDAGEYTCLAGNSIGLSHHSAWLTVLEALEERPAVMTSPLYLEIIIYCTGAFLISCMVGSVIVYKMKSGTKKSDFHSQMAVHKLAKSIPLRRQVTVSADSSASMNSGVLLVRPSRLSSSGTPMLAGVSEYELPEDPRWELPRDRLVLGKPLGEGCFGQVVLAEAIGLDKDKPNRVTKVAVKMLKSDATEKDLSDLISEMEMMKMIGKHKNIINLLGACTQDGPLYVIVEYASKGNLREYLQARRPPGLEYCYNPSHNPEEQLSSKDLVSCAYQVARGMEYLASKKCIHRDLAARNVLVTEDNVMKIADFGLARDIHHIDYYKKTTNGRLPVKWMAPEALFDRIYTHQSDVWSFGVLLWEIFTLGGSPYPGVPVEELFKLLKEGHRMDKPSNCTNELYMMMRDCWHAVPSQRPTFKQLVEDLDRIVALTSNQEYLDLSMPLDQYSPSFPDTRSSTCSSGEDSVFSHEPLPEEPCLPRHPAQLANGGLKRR
# method.notes: FGFR Enzymatic Assay, FGFR1 un-phosphorylated
pIC50: −log10 of the molar value.
Reported pIC50 values for a set of compounds

The examples below pair each entry with its known result.
- CCn1cc(-c2n[nH]c3cnc(N4C5CCC4C(=O)N(C)C5)nc23)cn1 (stereo not shown): 6.30 to 7.00
- C[C@@H]1CN(c2ccc(-c3n[nH]c4cnc(N5[C@H](C)CN(C(=O)OCCF)C[C@@H]5C)nc34)cn2)CCN1: 5.70 to 6.30
- C[C@@H]1CN(c2ccc(-c3n[nH]c4cnc(N5CC6CCC5CN6C(=O)N5CCCC5)nc34)cn2)CCN1 (stereo partly shown): 5.70 to 6.30

Ask: Need pIC50 of "C[C@@H]1CN(c2ccc(-c3n[nH]c4cnc(N5CCc6c(ncn6C)C5)nc34)cn2)CCN1" , thanks.
Result: 6.30 to 7.00

Ask: Need pIC50 of "C[C@@H]1CN(c2ccc(-c3n[nH]c4cnc(N5[C@H](C)COC[C@@H]5C)nc34)cn2)CCN1" , thanks.
Result: 6.30 to 7.00
